Test system: SF-295 CNS
Assay: NCI-60 one-dose screen, 48 h (100 = growth as untreated, 0 = no growth, -100 = all killed)
Details: 10 µM unless noted
About 83,000 compounds went through this panel and 20% of them were active in at least one assay; those are over-represented in the sample as a whole.
Give growth for every item shown.
Express your answer in %, writing the number without its unit.

[Q] For the compound shown here, Clc1cccc(Cl)c1C(Nc1nc2ccccc2s1)Nc1nc2ccccc2s1 , give the reported growth.
[A] 143

[Q] For the compound shown here, COc1ccc(-c2csc(C3=C(O)CN(C(C)C)C3=N)n2)cc1OC , give the reported growth.
[A] 113

[Q] For the compound shown here, Clc1ccc(-c2c3ccc(=[N+]4CCCCC4)cc-3oc3cc(N4CCCCC4)ccc23)cc1 , give the reported growth.
[A] -72.6

[Q] For the compound shown here, COc1ccc(C2=NN(C(=O)c3cc(OC)c(OC)c(OC)c3)C(c3ccc(Cl)cc3)C2)cc1OC (stereo not given) , give the reported growth.
[A] -4.6

[Q] For the compound shown here, c1c[nH]c(CNC2CCCCC2)c1 , give the reported growth.
[A] 105

[Q] For the compound shown here, COc1cc(C2CC(c3cc(OC)c(OCCCOc4ccc(-n5c(/C=C/c6ccccc6)nc6ccccc6c5=O)cc4)c(OC)c3)=NO2)cc(OC)c1OC (stereo not given) , give the reported growth.
[A] 81

[Q] For the compound shown here, CC(=O)OC1CCC2(C)C(=CC3C4CCC(=O)C4(C)CCC32)C1 (stereo not given) , give the reported growth.
[A] 95.5

[Q] For the compound shown here, Cc1ccc(-c2cc(-c3cccnc3)[nH]c(=O)c2C#N)cc1 , give the reported growth.
[A] 102

[Q] For the compound shown here, CCCCCCN(CCCCCC)c1ccc(/C=C2/SC(=O)N(c3nc(N4CCCC4)nc(N4CCCC4)n3)C2=O)c(C)c1 , give the reported growth.
[A] 56.7

[Q] For the compound shown here, C[C@@]1(CCC#N)[C@H]2CC[C@@H]3[C@H]4[C@H](C(=O)/C=C/c5cccnc5)CC[C@]4(C#N)CC[C@@]3(C)[C@]2(C)CC[C@H]1C(=O)/C=C/c1cccnc1 , give the reported growth.
[A] 100

[Q] For the compound shown here, CCc1c2c(nc3ccc(OC(=O)NCc4ccc(B5OC(C)(C)C(C)(C)O5)cc4)cc13)-c1cc3c(c(=O)n1C2)COC(=O)[C@]3(O)CC , give the reported growth.
[A] -0.543

[Q] For the compound shown here, Cn1cc2c(c1)-c1nc(Nc3ccccc3)ncc1CC2 , give the reported growth.
[A] 84.3

[Q] For the compound shown here, O=C(c1ccc(Nc2nccc(NCCCCNc3ccnc4cc(Cl)ccc34)n2)cc1)N1CCCCC1 , give the reported growth.
[A] 1.19

[Q] For the compound shown here, COc1ccc(C(=NN=C(N)N)c2ccc(OC)cc2)cc1 , give the reported growth.
[A] 48.5

[Q] For the compound shown here, CC(C)(C)c1ccc(/C=C/C(=O)Nc2ccc(O)cc2)cc1 , give the reported growth.
[A] 79.5

---

Give growth for every item shown.
System: T-47D breast
Assay: NCI-60 one-dose screen, 48 h (100 = growth as untreated, 0 = no growth, -100 = all killed)
Settings: 10 µM unless noted
About 83,000 compounds went through this panel and 20% of them were active in at least one assay; those are over-represented in the sample as a whole.
Express your answer in %, writing the number without its unit.

[Q] # get_value(readout= growth, system= T-47D breast) for C=C1C(=O)O[C@H]2[C@H]1CC/C(COC(=O)C(=O)c1c[nH]c3ccc(OC)cc13)=C\CC[C@@]1(C)O[C@@H]21
[A] -54.5

[Q] # get_value(readout= growth, system= T-47D breast) for COc1ccccc1NC(=O)N/C(N)=N/c1nc2ccccc2s1
[A] 52.2

[Q] # get_value(readout= growth, system= T-47D breast) for NC(=S)N/N=C/Cc1ccccc1
[A] 49.3

---

System: OVCAR-4 ovarian
Test: NCI-60 one-dose screen, 48 h
Conditions: 10 µM unless noted
The panel holds about 83,000 compounds, 20% with a hit somewhere; the sample as a whole holds those more often. The source made the active and inactive calls. Rule for the calls: active = growth percent below 10; inactive = the rest.
Your reply should match one of these outcome classes. active, inactive

[Q] Field: outcome | Entry: CN(C)c1ccc(-c2ccc3[nH]c(=O)nc(-c4ccccc4)c3c2)cn1
[A] inactive

[Q] Field: outcome | Entry: O=C(COc1ccc(/C=C2\Oc3ccccc3C2=O)cc1)Nc1nc2c(s1)CCCC2
[A] inactive

[Q] Field: outcome | Entry: O=C(CC(SCc1ccccc1)c1ccccc1)c1ccccc1 (centres undefined)
[A] inactive

[Q] Field: outcome | Entry: COc1ccc2nc(NNC(=O)c3cnccn3)c3cccn3c2c1
[A] active

[Q] Field: outcome | Entry: O=C1/C(=C/c2ccc(Br)cc2)C=C(c2ccccc2)N1CCc1ccccc1
[A] active

[Q] Field: outcome | Entry: CCc1c2c(nc3ccc(OC(=O)NCc4ccc(B5OC(C)(C)C(C)(C)O5)cc4)cc13)-c1cc3c(c(=O)n1C2)COC(=O)[C@]3(O)CC
[A] active

[Q] Field: outcome | Entry: Cc1ccc(Cl)c(NS(=O)(=O)c2ccc(-c3cnc(C4CC4)o3)cc2)c1
[A] inactive

[Q] Field: outcome | Entry: Cc1ccc(Nc2ccc(Nc3ccc(C)cc3)c3c2C(=O)c2cccc(O)c2C3=O)cc1
[A] inactive

[Q] Field: outcome | Entry: CC(=O)N1N=C(c2ccc(Nc3nc(Nc4ccc(F)cc4)nc(Nc4ccc(F)cc4)n3)cc2)CC1c1cccc([N+](=O)[O-])c1 (centres undefined)
[A] inactive

[Q] Field: outcome | Entry: CCN(CC)S(=O)(=O)c1cccc(-c2ccc3c(NC(=O)C4CC4)n[nH]c3c2)c1
[A] inactive

[Q] Field: outcome | Entry: Cc1ccc(NS(=O)(=O)c2ccc3c(c2)C2OCCC2C(c2ccc(C(=O)C(C)C)cc2)N3)cc1C (centres undefined)
[A] inactive

[Q] Field: outcome | Entry: COc1cc(OC)cc(C2CC(=O)Nc3c2c(C)nn3-c2nc3ccccc3[nH]2)c1 (centres undefined)
[A] inactive

[Q] Field: outcome | Entry: N=c1sc(Cc2ccc(Cl)cc2)cn1CC(=O)c1ccc(F)cc1
[A] inactive

[Q] Field: outcome | Entry: Cc1ccccc1NC(=O)N/C(N)=N/c1nc(-c2cccc([N+](=O)[O-])c2)cs1
[A] inactive

[Q] Field: outcome | Entry: N=C1C(c2nc(-c3ccc(Br)cc3)cs2)=C(O)CN1CC1CCCO1 (centres undefined)
[A] inactive

[Q] Field: outcome | Entry: C[C@H](NC(=O)[C@@H]1CSSC[C@@H](NC(=O)c2nc3ccccc3cc2O)C(=O)NCC(=O)N1C)c1ccccc1
[A] inactive

[Q] Field: outcome | Entry: OC(c1cccc(-n2ccc(C(F)(F)F)n2)c1)c1cnccc1NC1CCCCCC1 (centres undefined)
[A] inactive

[Q] Field: outcome | Entry: O=C(c1ccccc1)c1c(/C=C/c2ccc(Cl)cc2)nc2ccccc2c1/C=C/c1cccs1
[A] inactive

[Q] Field: outcome | Entry: Cc1c(C(=O)NC(Cc2ccccc2)C(O)C(=O)NCc2ccc(F)cc2)[nH]c2ccccc2c1=O (centres undefined)
[A] inactive

[Q] Field: outcome | Entry: COc1cccc(-c2nc3sccn3c2-c2ccnc(NCCNS(=O)(=O)c3cccc(F)c3)c2)c1
[A] inactive

[Q] Field: outcome | Entry: COc1ccc(CN2C(=O)C(Cl)=C(Nc3cccc(C(F)(F)F)c3)C2=O)cc1
[A] inactive

[Q] Field: outcome | Entry: Cc1cc(=O)[nH]c(N=Nc2c(O)[nH]c3ccccc23)n1
[A] inactive

[Q] Field: outcome | Entry: CC1=CN2C(=O)C3C4=C(CCCC4)SC3N=C2CN1c1c(C)cccc1C (centres undefined)
[A] inactive

[Q] Field: outcome | Entry: CCOC(=O)c1c(-c2ccc(Cl)cc2)c(C#N)c(=O)n(-c2ccccc2CC)c1N
[A] inactive

---

System: K-562 leukemia
Test: NCI-60 one-dose screen, 48 h (100 = growth as untreated, 0 = no growth, -100 = all killed)
Conditions: 10 µM unless noted
This is part of a sample that, as a whole, favours compounds with a hit. Of some 83,000 tested, about 20% had one in any assay.
# Fulfilled = growth below 30% (exclusive); Not fulfilled = growth at/above 30%

[Q] Does O=C(Nc1cccc(Cl)c1)c1cc(N=Nc2ccc([N+](=O)[O-])cc2Cl)ccc1O have growth strictly under 30%?
[A] Fulfilled

[Q] Does O=C(Nc1cccc(C(F)(F)F)c1)Nc1cccc(C(F)(F)F)c1 have growth strictly under 30%?
[A] Fulfilled

[Q] Does O=C1c2cccc(NCCN=Cc3cc([N+](=O)[O-])ccc3O)c2C(=O)c2c(NCCN=Cc3cc([N+](=O)[O-])ccc3O)cccc21 have growth strictly under 30%?
[A] Fulfilled

[Q] Does CC(=O)c1nc(Nc2ccc(C)cc2)sc1C have growth strictly under 30%?
[A] Not fulfilled

[Q] Does Cn1c(-c2c(N)n(Cc3ccc(C(F)(F)F)cc3)c3nc(C#N)c(C#N)nc23)nc2ccccc21 have growth strictly under 30%?
[A] Fulfilled

[Q] Does C=CCn1c(C)nc2cc(Nc3nc(N4CCCC4)nc4ccccc34)ccc21 have growth strictly under 30%?
[A] Fulfilled

[Q] Does CNc1ccc(NC)c2c1C(=O)c1ccccc1C2=O have growth strictly under 30%?
[A] Not fulfilled

[Q] Does Clc1cccc(Cl)c1/C=C/c1cc(/C=C/c2c(Cl)cccc2Cl)[nH]n1 have growth strictly under 30%?
[A] Fulfilled

[Q] Does CCOC(=O)c1c(-c2ccc(Cl)cc2)c(C#N)c(=O)n(-c2ccccc2CC)c1N have growth strictly under 30%?
[A] Not fulfilled

Attribution: PubChem BioAssay (NCI)
